# test.description: DRUGMATRIX: Calcium Channel Type L, Phenylalkylamine radioligand binding (ligand: [3H] (-)-Desmethoxyverapamil (D-888))
# Format: cell membranes, Rattus norvegicus, Wistar, Brain, Membrane
# condition.notes: Not Active = under 50% inhibition at 10 µM

# compound, IC50
rows = [
    ("C[C@H](CCC(=O)O)[C@H]1CC[C@H]2[C@@H]3[C@H](O)C[C@@H]4C[C@H](O)CC[C@]4(C)[C@H]3C[C@H](O)[C@]12C", "Not Active"),
    ("C[C@H]1O[C@@H](O[C@H]2[C@@H](O)C[C@H](O[C@H]3[C@@H](O)C[C@H](O[C@H]4CC[C@@]5(C)[C@H](CC[C@@H]6[C@@H]5C[C@@H](O)[C@]5(C)[C@@H](C7=CC(=O)OC7)CC[C@]65O)C4)O[C@@H]3C)O[C@@H]2C)C[C@H](O)[C@@H]1O", "Not Active"),
]

---

# test.description: DRUGMATRIX: GABAA, Chloride Channel, TBOB radioligand binding (ligand: [3H] TBOB)
# Format: cell membranes, Rattus norvegicus, Wistar, Cerebral cortex, Membrane
# condition.notes: Not Active = under 50% inhibition at 10 µM
measured.quantity: Ki

# compound, Ki
measured = [
    ("O=c1oc2ccccc2c(O)c1Cc1c(O)c2ccccc2oc1=O", "Not Active"),
    ("CC(C)(C)NCC(O)c1cc(Cl)c(N)c(Cl)c1 (stereo unspecified)", "Not Active"),
    ("CCn1cc(C(=O)O)c(=O)c2cc(F)c(N3CCNCC3)cc21", "Not Active"),
    ("CN(C)CCCN1c2ccccc2Sc2ccccc21", "Not Active"),
    ("Cc1ccc(-c2cc(C(F)(F)F)nn2-c2ccc(S(N)(=O)=O)cc2)cc1", "Not Active"),
]

Return reported Ki; argument: CC(C)[C@H]1C(=O)N2CCC[C@H]2[C@]2(O)O[C@](NC(=O)[C@@H]3C=C4c5cccc6[nH]cc(c56)C[C@H]4N(C)C3)(C(C)C)C(=O)N12 Not Active

Similarly, C[C@H]1c2cccc(O)c2C(=O)C2=C(O)[C@]3(O)C(=O)C(C(N)=O)=C(O)[C@@H](N(C)C)[C@@H]3[C@@H](O)[C@@H]21.O ? Not Active

---

# tested.on: Tyrosine-protein kinase Lck (Homo sapiens, UniProt P06239)
# Sequence (P06239 whole entry): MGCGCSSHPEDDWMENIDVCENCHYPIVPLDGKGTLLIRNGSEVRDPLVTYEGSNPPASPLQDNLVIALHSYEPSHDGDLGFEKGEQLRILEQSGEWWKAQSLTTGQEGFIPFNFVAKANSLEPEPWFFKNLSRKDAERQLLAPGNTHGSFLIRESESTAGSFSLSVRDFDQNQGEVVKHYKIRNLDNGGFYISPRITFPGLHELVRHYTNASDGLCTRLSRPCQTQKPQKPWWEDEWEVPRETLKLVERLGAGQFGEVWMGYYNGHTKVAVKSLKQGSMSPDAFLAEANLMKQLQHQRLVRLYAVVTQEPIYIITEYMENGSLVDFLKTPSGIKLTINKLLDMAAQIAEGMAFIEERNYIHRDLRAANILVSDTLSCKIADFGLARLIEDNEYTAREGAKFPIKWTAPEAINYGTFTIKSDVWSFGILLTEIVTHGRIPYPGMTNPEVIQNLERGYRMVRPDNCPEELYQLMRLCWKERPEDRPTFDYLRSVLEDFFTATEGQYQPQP
# test.description: DRUGMATRIX: Protein Tyrosine Kinase, LCK enzyme inhibition (substrate: Poly(Glu:Tyr))
# Type: cell-based, Insect cells
# condition.notes: insect cells; Not Active = under 50% inhibition at 10 µM

# compound, IC50
measured = [
    ("CCC(C)n1ncn(-c2ccc(N3CCN(c4ccc(OCC5COC(Cn6cncn6)(c6ccc(Cl)cc6Cl)O5)cc4)CC3)cc2)c1=O (stereo not drawn)", "Not Active"),
    ("CSc1ccc(/C=C2/C(C)=C(CC(=O)O)c3cc(F)ccc32)cc1 [SULINDAC SULFIDE]", "Not Active"),
    ("CC(C)(C)NC(=O)[C@@H]1C[C@@H]2CCCC[C@@H]2CN1C[C@@H](O)[C@H](Cc1ccccc1)NC(=O)[C@H](CC(N)=O)NC(=O)c1ccc2ccccc2n1", "Not Active"),
]

---

# tested.on: Sodium-dependent noradrenaline transporter (Homo sapiens, UniProt P23975)
# Sequence (P23975 whole entry): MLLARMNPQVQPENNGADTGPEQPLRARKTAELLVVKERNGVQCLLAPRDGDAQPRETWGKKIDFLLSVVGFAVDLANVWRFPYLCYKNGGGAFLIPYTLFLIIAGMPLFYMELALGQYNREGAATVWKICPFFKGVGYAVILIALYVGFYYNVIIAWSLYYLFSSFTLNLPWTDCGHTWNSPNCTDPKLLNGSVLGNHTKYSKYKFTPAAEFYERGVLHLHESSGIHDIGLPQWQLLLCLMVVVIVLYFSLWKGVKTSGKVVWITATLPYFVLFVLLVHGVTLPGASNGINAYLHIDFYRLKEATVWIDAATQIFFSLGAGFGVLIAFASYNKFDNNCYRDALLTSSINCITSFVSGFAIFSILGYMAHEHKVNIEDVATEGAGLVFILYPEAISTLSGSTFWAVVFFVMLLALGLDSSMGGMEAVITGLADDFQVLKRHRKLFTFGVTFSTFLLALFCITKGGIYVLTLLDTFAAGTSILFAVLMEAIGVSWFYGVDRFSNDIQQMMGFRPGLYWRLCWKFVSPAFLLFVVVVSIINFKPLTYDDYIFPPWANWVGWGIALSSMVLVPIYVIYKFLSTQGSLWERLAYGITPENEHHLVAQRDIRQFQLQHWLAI
# test.description: DRUGMATRIX: Norepinephrine Transporter radioligand binding (ligand: [125I] RTI-55)
# Format: cell membranes, MDCK, Membrane
# condition.notes: mdck; Not Active = under 50% inhibition at 10 µM
measured.quantity: IC50

Consider the reported IC50 for these molecules:
# molecule, value.measured
measured = [
    ("Nc1c(Br)cc(Br)cc1CN[C@H]1CC[C@H](O)CC1 [AMBROXOL]", "Not Active"),
    ("CNNCc1ccc(C(=O)NC(C)C)cc1 [PROCARBAZINE]", "Not Active"),
    ("C=CCC1(C(C)CCC)C(=O)NC(=O)NC1=O (stereo not drawn) [SECOBARBITAL]", "Not Active"),
    ("COCCc1ccc(OCC(O)CNC(C)C)cc1 (stereo not drawn) [METOPROLOL]", "Not Active"),
    ("CC[C@]1(O)C[C@H]2CN(CCc3c([nH]c4ccccc34)[C@@](C(=O)OC)(c3cc4c(cc3OC)N(C=O)[C@H]3[C@@](O)(C(=O)OC)[C@H](OC(C)=O)[C@]5(CC)C=CCN6CC[C@]43[C@@H]65)C2)C1 [VINCRISTINE]", "Not Active"),
    ("C[C@]12CC[C@@H]3c4ccc(O)cc4CC[C@H]3[C@@H]1CCC2=O [ESTRONE]", "Not Active"),
    ("Nc1ncn([C@@H]2O[C@H](CO)[C@@H](O)[C@H]2O)c(=O)n1 [AZACITIDINE]", "Not Active"),
]

Read the next record carefully.
Return reported IC50; argument: OCCN(CCO)c1nc(N2CCCCC2)c2nc(N(CCO)CCO)nc(N3CCCCC3)c2n1 [DIPYRIDAMOLE] Not Active
